Just for reference, patent EP1005445B1 is where these values come from.

- TESTED SYSTEM: VLA-4 (a4b1 integrin) (Homo sapiens, UniProt P05556+P13612)
- Construct: followed by 10 µl of Ramos cell-derived VLA-4; endogenous in cells; host or cells: Ramos cells (VLA-4 preparation derived from the cells)
- Sequence (P13612 34-1032): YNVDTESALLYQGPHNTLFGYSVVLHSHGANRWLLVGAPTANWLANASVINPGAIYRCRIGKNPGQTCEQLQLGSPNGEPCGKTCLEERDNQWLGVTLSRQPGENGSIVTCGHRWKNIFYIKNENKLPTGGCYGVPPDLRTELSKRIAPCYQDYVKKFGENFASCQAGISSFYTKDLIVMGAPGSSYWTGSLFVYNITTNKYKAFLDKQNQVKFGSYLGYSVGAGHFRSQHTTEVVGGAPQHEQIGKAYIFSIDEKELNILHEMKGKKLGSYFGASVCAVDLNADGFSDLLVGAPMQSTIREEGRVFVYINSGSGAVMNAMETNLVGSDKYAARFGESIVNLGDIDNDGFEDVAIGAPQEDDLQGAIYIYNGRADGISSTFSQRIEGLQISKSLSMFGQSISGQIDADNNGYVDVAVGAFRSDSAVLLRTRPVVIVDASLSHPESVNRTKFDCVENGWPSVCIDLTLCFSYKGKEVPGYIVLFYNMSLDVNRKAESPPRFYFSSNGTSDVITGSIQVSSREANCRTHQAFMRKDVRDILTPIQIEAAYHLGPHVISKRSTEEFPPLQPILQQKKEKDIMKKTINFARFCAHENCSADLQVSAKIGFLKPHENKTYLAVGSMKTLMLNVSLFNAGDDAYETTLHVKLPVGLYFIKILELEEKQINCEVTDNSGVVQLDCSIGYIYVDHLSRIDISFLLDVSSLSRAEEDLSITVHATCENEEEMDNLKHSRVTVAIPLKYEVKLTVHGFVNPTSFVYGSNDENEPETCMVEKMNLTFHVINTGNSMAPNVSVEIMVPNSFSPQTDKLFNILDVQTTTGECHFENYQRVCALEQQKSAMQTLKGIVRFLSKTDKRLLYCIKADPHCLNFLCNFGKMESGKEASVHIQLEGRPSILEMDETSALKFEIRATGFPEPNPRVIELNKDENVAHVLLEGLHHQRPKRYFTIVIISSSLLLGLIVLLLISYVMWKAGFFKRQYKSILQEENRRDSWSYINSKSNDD
- Sequence (P05556 21-798): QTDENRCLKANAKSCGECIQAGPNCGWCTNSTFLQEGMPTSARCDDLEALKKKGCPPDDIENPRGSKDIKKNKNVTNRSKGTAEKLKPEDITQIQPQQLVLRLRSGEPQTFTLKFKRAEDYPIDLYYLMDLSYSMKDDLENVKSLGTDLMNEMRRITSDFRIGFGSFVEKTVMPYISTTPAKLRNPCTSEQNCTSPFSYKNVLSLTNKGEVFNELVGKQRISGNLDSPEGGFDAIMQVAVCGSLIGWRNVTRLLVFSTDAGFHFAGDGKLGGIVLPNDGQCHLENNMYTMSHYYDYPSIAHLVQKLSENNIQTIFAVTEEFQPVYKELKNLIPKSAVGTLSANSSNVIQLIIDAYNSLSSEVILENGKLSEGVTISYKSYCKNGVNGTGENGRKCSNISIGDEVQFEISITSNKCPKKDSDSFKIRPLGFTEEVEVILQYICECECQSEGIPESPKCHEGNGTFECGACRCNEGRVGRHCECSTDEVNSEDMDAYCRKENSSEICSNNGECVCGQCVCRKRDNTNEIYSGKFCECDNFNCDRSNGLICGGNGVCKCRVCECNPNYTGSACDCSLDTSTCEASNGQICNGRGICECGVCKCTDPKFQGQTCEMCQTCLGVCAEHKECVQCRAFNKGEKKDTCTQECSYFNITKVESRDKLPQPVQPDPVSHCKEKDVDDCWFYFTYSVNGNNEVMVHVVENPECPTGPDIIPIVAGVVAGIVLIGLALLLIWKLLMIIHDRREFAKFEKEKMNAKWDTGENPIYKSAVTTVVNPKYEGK
- PROTOCOL DESCRIPTION: VLA-4 / VCAM-1 Screening Assay (solid-phase, dual antibody ELISA)
- CONDITION PARAMETERS: Ramos cell-derived VLA-4 binding to immobilized recombinant human VCAM-1; 1 mM MnCl2, 2 hr at 37 °C; read-out: ELISA IC50
OBSERVED PROPERTY: pIC50
Would you please state pIC50, meaning minus log10 of the concentration in mol/L, as a bare number?

Record excerpt, results attached:
SMILES CODE	TESTED SYSTEM	pIC50
CNc1ccccc1C(=O)N[C@@H](Cc1ccc(NC(=O)c2c(Cl)cccc2Cl)cc1)C(=O)O	VLA-4 (a4b1 integrin) (Homo sapiens, UniProt P05556+P13612)	8.72
Cc1cccc(C(C)C)c1C(=O)N[C@@H](Cc1ccc(NC(=O)c2c(Cl)cccc2Cl)cc1)C(=O)O	VLA-4 (a4b1 integrin) (Homo sapiens, UniProt P05556+P13612)	8.92
CS(=O)(=O)c1ccccc1C(=O)N[C@@H](Cc1ccc(NC(=O)c2c(Cl)cccc2Cl)cc1)C(=O)O	VLA-4 (a4b1 integrin) (Homo sapiens, UniProt P05556+P13612)	8.48
Cc1cccc(Cl)c1C(=O)N[C@@H](Cc1ccc(NC(=O)c2c(F)c(F)c(F)c(F)c2F)cc1)C(=O)O	VLA-4 (a4b1 integrin) (Homo sapiens, UniProt P05556+P13612)	8.35
O=C(N[C@@H](Cc1ccc(NC(=O)c2c(Cl)cccc2Cl)cc1)C(=O)O)c1ccc(O)cc1Cl	VLA-4 (a4b1 integrin) (Homo sapiens, UniProt P05556+P13612)	9.34
COc1ccccc1C(=O)N[C@@H](Cc1ccc(NC(=O)c2c(Cl)cccc2Cl)cc1)C(=O)O	VLA-4 (a4b1 integrin) (Homo sapiens, UniProt P05556+P13612)	8.07

Turning to the following molecule.
Incoming: For Cc1cccc(Cl)c1C(=O)N[C@@H](Cc1ccc(NC(=O)c2c(F)cccc2F)cc1)C(=O)O , what is its reported pIC50?
Outgoing: 8.94
